- system-tested: Adenosine receptor A3 (Homo sapiens)
- method-notes: Displacement of [3H]AB-MECA from human adenosine A3 receptor expressed in HEK293 cell membrane at 1 uM
- Type: cell membranes
property-name: Activity (%)
Report the value in % with no unit label.

# count of solved cases: 2
CN(C)c1ccc(-c2cc(-c3ccco3)nc(N)c2C#N)cc1 :: 17
N#Cc1c(-c2ccc(Cl)c(Cl)c2)cc(-c2ccco2)nc1N :: 14

Prompt: Using the record for "N#Cc1c(-c2ccco2)cc(-c2ccco2)nc1N" , report its Activity.
Completion: 33

Prompt: Using the record for "N#Cc1c(-c2ccc(Cl)cc2)cc(-c2ccco2)nc1N" , report its Activity.
Completion: 21

Prompt: Using the record for "N#Cc1c(-c2ccccc2)cc(-c2ccc[nH]2)nc1N" , report its Activity.
Completion: 0

Prompt: Using the record for "CC(C)Oc1ccc(-c2cc(-c3ccco3)nc(N)c2C#N)cc1" , report its Activity.
Completion: 7
